List of IP values.
# Species on record: Rattus norvegicus
# Method Summary: Open TG-GATES - Regimen: Daily Repeat
# Type: toxicity, organism-based, Sprague-Dawley
# Design: regimen Daily Repeat, gender Male, age 6 weeks
# Measurement Conditions: in vivo, po, 0 mg/kg, […], tissue Plasma, route gavage, dose level Control, time 28 day
Property: IP (mg/dL)

                                    compound  property  endpoint_value
 0   Cn1cnc([N+](=O)[O-])c1Sc1ncnc2nc[nH]c12        IP             5.5
 1  COc1ccc(Cl)cc1C(=O)NCCc1ccc(S(=O)(=O)NC(=O)NC2CCCCC2)cc1 [GLYBURIDE]        IP             6.6
 2  COc1ccc(O)c(C(C)(C)C)c1.COc1ccc(O)cc1C(C)(C)C [BUTYLATED HYDROXYANISOLE]        IP             5.4
 3                                     C=CCO        IP             6.1
 4  CS(=O)(=O)Nc1ccc([N+](=O)[O-])cc1Oc1ccccc1 [NIMESULIDE]        IP             6.6
 5                Cn1c(=O)c2c(ncn2C)n(C)c1=O        IP             6.6
 6       Cc1cccc(Nc2cc(Cl)nc(SCC(=O)O)n2)c1C        IP             6.5
 7  O=C1CN(/N=C/c2ccc(-c3ccc([N+](=O)[O-])cc3)o2)C(O)=N1        IP             6.5
 8  O=P1(N(CCCl)CCCl)NCCCO1 (stereo unspecified) [CYCLOPHOSPHAMIDE ANHYDROUS]        IP             6.4
 9  Cc1cnc(NC(=O)C2=C(O)c3ccccc3S(=O)(=O)N2C)s1        IP             6.9
10         O=C1NC(=O)C(c2ccccc2)(c2ccccc2)N1        IP             6.3

---

# Organism: Rattus norvegicus
# Method Summary: Open TG-GATES - Regimen: Single
# Type: toxicity, organism-based, Sprague-Dawley
# Set-up: regimen Single, gender Male, age 6 weeks
# Measurement Conditions: in vivo, po, 0 mg/kg, 9 h, tissue Blood, route gavage, dose level Control
Property: Ht

                                   molecule  endpoint_value
0         O=C1NC(=O)C(c2ccccc2)(c2ccccc2)N1           40.5%
1       Cc1cccc(Nc2cc(Cl)nc(SCC(=O)O)n2)c1C           39.5%
2  CNCCC(Oc1ccc(C(F)(F)F)cc1)c1ccccc1.Cl (centres undefined) [FLUOXETINE HYDROCHLORIDE]           40.2%
3  S=C=Nc1cccc2ccccc12 [1-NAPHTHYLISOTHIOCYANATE]           36.8%
4  COc1ccc(O)c(C(C)(C)C)c1.COc1ccc(O)cc1C(C)(C)C [BUTYLATED HYDROXYANISOLE]           37.6%
5  COc1ccc(Cl)cc1C(=O)NCCc1ccc(S(=O)(=O)NC(=O)NC2CCCCC2)cc1 [GLYBURIDE]           39.7%
6  CS(=O)(=O)Nc1ccc([N+](=O)[O-])cc1Oc1ccccc1 [NIMESULIDE]           39.5%
7                                     C=CCO           38.5%
8   Cn1cnc([N+](=O)[O-])c1Sc1ncnc2nc[nH]c12           37.7%

---

# Species: Rattus norvegicus
# Method Summary: Open TG-GATES - Regimen: Daily Repeat
# Format: toxicity, organism-based, Sprague-Dawley
# Parameters: regimen Daily Repeat, gender Male, age 6 weeks
# Measurement Conditions: in vivo, po, 0 mg/kg, 72 h, tissue Plasma, route gavage, dose level Control, time 3 day
Would you please tag the item criterion met when its DBIL is 0.004 mg/dL or above, and criterion not met when it is below?

In [3]: df
Out[3]:
                                   compound  qualitative_label
0       Cc1cccc(Nc2cc(Cl)nc(SCC(=O)O)n2)c1C      criterion met
1  COc1ccc(Cl)cc1C(=O)NCCc1ccc(S(=O)(=O)NC(=O)NC2CCCCC2)cc1 [GLYBURIDE]      criterion met
2  COc1ccc(O)c(C(C)(C)C)c1.COc1ccc(O)cc1C(C)(C)C [BUTYLATED HYDROXYANISOLE]      criterion met
3   Cn1cnc([N+](=O)[O-])c1Sc1ncnc2nc[nH]c12  criterion not met

---

# Organism: Rattus norvegicus
# Method Summary: Open TG-GATES - Regimen: Daily Repeat
# Type: toxicity, organism-based, Sprague-Dawley
# Design: regimen Daily Repeat, gender Male, age 6 weeks
# Measurement Conditions: in vivo, po, 0 mg/kg, […], tissue Plasma, route gavage, dose level Control, time 28 day
List of ALT values.
Property: ALT (IU/L)

>>> df
                                   molecule  measurement_units  endpoint_value
0   Cn1cnc([N+](=O)[O-])c1Sc1ncnc2nc[nH]c12               IU/L            44.8
1  O=P1(N(CCCl)CCCl)NCCCO1 (stereo unspecified) [CYCLOPHOSPHAMIDE ANHYDROUS]               IU/L            40.4
2  CS(=O)(=O)Nc1ccc([N+](=O)[O-])cc1Oc1ccccc1 [NIMESULIDE]               IU/L              29
3       Cc1cccc(Nc2cc(Cl)nc(SCC(=O)O)n2)c1C               IU/L            36.2
4  Cc1cnc(NC(=O)C2=C(O)c3ccccc3S(=O)(=O)N2C)s1               IU/L              32
5  COc1ccc(O)c(C(C)(C)C)c1.COc1ccc(O)cc1C(C)(C)C [BUTYLATED HYDROXYANISOLE]               IU/L            32.6

---

List of RBC values.
# Species: Rattus norvegicus
# Method Summary: Open TG-GATES - Regimen: Daily Repeat
# Format: toxicity, organism-based, Sprague-Dawley
# Parameters: regimen Daily Repeat, gender Male, age 6 weeks
# Measurement Conditions: in vivo, po, 0 mg/kg, 72 h, tissue Blood, route gavage, dose level Control, time 3 day
Property: RBC (x10_4/ul)

>>> print(df.to_string())
                                    molecule  property  endpoint_value
 0  O=C1NC(=O)C(c2ccccc2)(c2ccccc2)N1 [PHENYTOIN]       RBC           608.6
 1  O=C1CN(/N=C/c2ccc(-c3ccc([N+](=O)[O-])cc3)o2)C(O)=N1 [DANTROLENE]       RBC           618.2
 2  CS(=O)(=O)Nc1ccc([N+](=O)[O-])cc1Oc1ccccc1 [NIMESULIDE]       RBC           635.6
 3                     C=CCO [ALLYL ALCOHOL]       RBC             638
 4     Cn1c(=O)c2c(ncn2C)n(C)c1=O [CAFFEINE]       RBC             627
 5  Cc1cccc(Nc2cc(Cl)nc(SCC(=O)O)n2)c1C [PIRINIXIC ACID]       RBC           609.4
 6  Cc1cnc(NC(=O)C2=C(O)c3ccccc3S(=O)(=O)N2C)s1 [MELOXICAM]       RBC           645.4
 7  Cn1cnc([N+](=O)[O-])c1Sc1ncnc2nc[nH]c12 [AZATHIOPRINE]       RBC           630.8
 8  O=P1(N(CCCl)CCCl)NCCCO1 (stereo unspecified) [CYCLOPHOSPHAMIDE ANHYDROUS]       RBC             611
 9  COc1ccc(Cl)cc1C(=O)NCCc1ccc(S(=O)(=O)NC(=O)NC2CCCCC2)cc1 [GLYBURIDE]       RBC           628.4
10  COc1ccc(O)c(C(C)(C)C)c1.COc1ccc(O)cc1C(C)(C)C [BUTYLATED HYDROXYANISOLE]       RBC             619

---

List of KIDNEY_R values.
# Species on record: Rattus norvegicus
# Method Summary: Open TG-GATES - Regimen: Daily Repeat
# Assay type: toxicity, organism-based, Sprague-Dawley
# Set-up: regimen Daily Repeat, gender Male, age 6 weeks
# Measurement Conditions: in vivo, po, 0 mg/kg, […], tissue Kidney, route gavage, dose level Control, time 7 day
Property: KIDNEY_R (g)

>>> print(df.to_string())
                                   compound  measurement_units  endpoint_value
0                                     C=CCO                  g             1.1
1  O=C1CN(/N=C/c2ccc(-c3ccc([N+](=O)[O-])cc3)o2)C(O)=N1                  g             1.2
2       Cc1cccc(Nc2cc(Cl)nc(SCC(=O)O)n2)c1C                  g               1
3   Cn1cnc([N+](=O)[O-])c1Sc1ncnc2nc[nH]c12                  g             1.1
4  COc1ccc(Cl)cc1C(=O)NCCc1ccc(S(=O)(=O)NC(=O)NC2CCCCC2)cc1 [GLYBURIDE]                  g             1.2
